# assay target: T1, cynomolgus 5T4 protein (cynomolgus monkey, UniProt Q4R8Y9 35-355, limits assumed)
# T1 construct: Coated protein in ELISA; the screening step names a cyno 5T4-His protein; also called cyno 5T4; recombinant cyno 5T4-His protein
# T1 sequence (looked up): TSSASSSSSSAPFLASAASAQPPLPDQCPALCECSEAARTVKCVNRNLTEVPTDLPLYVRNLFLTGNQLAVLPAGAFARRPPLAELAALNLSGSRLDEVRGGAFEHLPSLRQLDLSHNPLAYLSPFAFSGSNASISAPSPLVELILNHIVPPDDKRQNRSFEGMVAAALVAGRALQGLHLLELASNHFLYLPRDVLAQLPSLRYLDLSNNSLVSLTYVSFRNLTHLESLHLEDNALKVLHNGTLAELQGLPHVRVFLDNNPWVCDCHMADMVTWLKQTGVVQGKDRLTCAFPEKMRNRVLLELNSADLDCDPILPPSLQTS
# assay explanation: ELISA, coated antigen
Task for the reader: assign each of the following binders its reported EC50.
Answers are plain numbers, in nM.

// solved cases for EC50 follow
| binder | EC50 (nM) |
| --- | --- |
| 49C5 chimeric antibody (antibody, V domains shown, chimeric mAb) VH: EVQLQQSGPELVKPGASVKISCKASGYTFTDYYMNWVKQSHGKSLEWIGDINPYSGGATNNQKFKGKATLTVDKSSSTAYIELRSLTSEDSAVYFCARGSIYYDSTANYFDYWGQGTTLTVSS VL: DIQMTQSPASLSASVGETVTITCRASENIYSYLAWYQQKQGKSPQLLVYNAKSLTEGVPSRFSGSRSGTQFSLKINSLQPEDFGSYYCQHHYVTPWTFGGGTKLEIK | 0.18 |
| 257F1 chimeric antibody (antibody, V domains shown, chimeric mAb) VH: QVLLQQSGAEVARPGASVKLSCKASGYTFTSYGLNWLRQRTGQGLEWIGEIYPRSENTHYNEKFKGKATLTADKSSSTAYMELRSLTSEDSAVYFCARGDWDFDHWGQGTTLTVSS VL: EILLTQSPAIIPASPGEKVTITCSASSSVSYMNWYQQKPGSSPKIWIYGISNLASGVPARFSGSGSGTFFSFTINSMEAEDVATYYCQQRSSYPRTFGGGTKLEIK | 0.11 |
| 95F10 chimeric antibody (antibody, V domains shown, chimeric mAb) VH: QVQLQQSGPEVVNPGASVKISCKASGYTFTDYYMNWVKQSRGKSLEWIGDINPNNGGTNYNQKFKDKATLTVDKSSNTAYMELRSLTSENSAVYYCAKEGPPGAMDYWGQGTSVTVSS VL: NIVMTQTPKFLLVSAGDRVTITCKASQSVSNHVAWYQQKPGQSPKLLIYYVSNRYIGVPDRFTGSGYGTDFTFTISTVQAEDLAVYFCQQVYSSPFTFGGGTRLEMK | 0.17 |
| 425G1 chimeric antibody (antibody, V domains shown, chimeric mAb) VH: EVQLQQSGAELVKPGASVKLSCTASGFNIKDTYMHWVKQRPEQGLEWIGRIDPANGHTIFASKFQGKATITADTSSNTAYMQLSSLTSGDTAVYYCGLFTMVVVPWYFDVWGTGTTVTVSS VL: DIVMTQSHKFMSTSVGDRVSITCKASQDVSTAVAWYQQKPGQSPKLLIYWASTRHTGVPDRFTGSGSGTDYTLTISSVQAEDLALYYCQQHYSSPLTFGAGTKLELK | 0.23 |

Turning to the following binder.
Q) Given the binder 267B5 chimeric antibody (antibody, V domains shown, chimeric mAb) VH: DVQFQESGPGLVKPSQSLSLTCSVTGYSITSSYYWNWIRQFPGDKLEWMGYISYDGSNNYNPSLKNRISITRDTSKKQFFLKLNSVTTEDTATYYCARSWDGGYAMDNWGQGTSVTVSS VL: SIVMTQTPKFLLVSAGDRVTITCKASQSVSNDVAWYQQKPGQSPKLLIYFASNRYTGVPDRFTGSGYGTVFTFTISTVQADDLAVYFCQQDYTSPWTFGGGTRLEIK , what is its reported EC50?
A) 0.17
